# System: native geph
# assay.overview: µSPOT peptide microarray binding assay with native geph from mouse brain lysate
# assay.setup: overlapping GlyR β peptide library on µSPOT array; 3% mouse brain lysate; normalized to most prominent spot; n = 2 array-internal duplicate
Recorded Native geph Binding Intensity [norm.] values for a group of sequences are listed next.
Report field: quantity (unit follows the number).

Below, each entry is followed by its recorded Native geph Binding Intensity [norm.] result.
[[record]]
primary_sequence = "FELSNYDCYGKPIEVNNGLG [Glycine receptor subunit beta_028, GlyR β residues 430-449]"
system_tested = "native geph"
reading = "0.180 norm."

[[record]]
primary_sequence = "NNPKRVEAEKARIAKAEQAD [Glycine receptor subunit beta_003, GlyR β residues 355-374]"
system_tested = "native geph"
reading = "0.109 norm."

[[record]]
primary_sequence = "TPVHISTLQVGETRCKKVCT [Glycine receptor subunit beta_015, GlyR β residues 391-410]"
system_tested = "native geph"
reading = "0.060 norm."

[[record]]
primary_sequence = "EAEKARIAKAEQADGKGGNA [Glycine receptor subunit beta_005, GlyR β residues 361-380]"
system_tested = "native geph"
reading = "0.113 norm."


## Task Tell me Native geph Binding Intensity [norm.] reported for IAKAEQADGKGGNAAKKNTV [Glycine receptor subunit beta_007]
## Result 0.066 norm.

## Task Fill in Native geph Binding Intensity [norm.] for record NNGLGKPQAKNKKPPPAKPV [Glycine receptor subunit beta_033, GlyR β residues 445-464]
## Result 0.041 norm.

## Task Give the value of Native geph Binding Intensity [norm.] reported for the following: GTGTPVHISTLQVGETRCKK [Glycine receptor subunit beta_014, GlyR β residues 388-407]
## Result 0.068 norm.

###

# key: entry, value: Fl-geph Binding Intensity [norm.]
# Test system: FL-geph
# assay.overview: µSPOT peptide microarray binding assay with full-length geph
# assay.setup: µSPOT peptide microarray, GlyRβ full positional scan, intensity normalised to wild-type sequence DLRSNDFSIVGSLPR (=1)
Remember to quote the unit after the number.

[[record]]
primary_sequence = "DLRSNDFSQVGSLPR [GlyRβ_Full_Positional_Scan_180, GlyR β 414-428 variant I422Q]"
reading = "0.53 norm."

[[record]]
primary_sequence = "DLRSNDFCIVGSLPR [GlyRβ_Full_Positional_Scan_157, GlyR β 414-428 variant S421C]"
reading = "0.71 norm."

[[record]]
primary_sequence = "DLRMNDFSIVGSLPR [GlyRβ_Full_Positional_Scan_078]"
reading = "1.08 norm."

[[record]]
primary_sequence = "DLRSNDFSIVVSLPR [GlyRβ_Full_Positional_Scan_206, GlyR β 414-428 variant G424V]"
reading = "0.42 norm."


Proceed to the following item.
## Task Return the recorded Fl-geph Binding Intensity [norm.] value; entry: DLRANDFSIVGSLPR [GlyRβ_Full_Positional_Scan_061]
## Result 0.86 norm.

###

# Tested on: native geph
# assay.overview: µSPOT peptide microarray binding assay with native geph from mouse brain lysate
# assay.setup: µSPOT peptide microarray, GlyRβ full positional scan, native geph from mouse brain lysate; intensity normalised to wild-type sequence DLRSNDFSIVGSLPR (=1)
Hi, to clarify the labels: 1 covers Native geph Binding Intensity [norm.] from 0.3 norm. upward, -1 covers anything below 0.3 norm..

[[record]]
primary_sequence = "DLRSNEFSIVGSLPR [GlyRβ_Full_Positional_Scan_111]"
discrete_label = 1

[[record]]
primary_sequence = "DLRSNNFSIVGSLPR [GlyRβ_Full_Positional_Scan_119]"
discrete_label = 1

[[record]]
primary_sequence = "DLRSRDFSIVGSLPR [GlyRβ_Full_Positional_Scan_092]"
discrete_label = 1

[[record]]
primary_sequence = "DLRSNDASIVGSLPR [GlyRβ_Full_Positional_Scan_121, GlyR β 414-428 variant F420A]"
discrete_label = 1


## Task # check: Native geph Binding Intensity [norm.] of DLRSMDFSIVGSLPR [GlyRβ_Full_Positional_Scan_098] is greater than or equal to 0.3 norm.
## Result 1

## Task Hello, I need to know if DLRSNTFSIVGSLPR [GlyRβ_Full_Positional_Scan_116] has measured Native geph Binding Intensity [norm.] not below 0.3 norm.. Thanks!
## Result 1

## Task Is Native geph Binding Intensity [norm.] for DLRSNDFSHVGSLPR [GlyRβ_Full_Positional_Scan_173, GlyR β 414-428 variant I422H] at or above 0.3 norm.?
## Result -1

## Task Would you say DLRSNDESIVGSLPR [GlyRβ_Full_Positional_Scan_131, GlyR β 414-428 variant F420E] shows Native geph Binding Intensity [norm.] at minimum 0.3 norm.?
## Result -1

## Task Hi, just wondering whether DLRINDFSIVGSLPR [GlyRβ_Full_Positional_Scan_063] shows Native geph Binding Intensity [norm.] of 0.3 norm. or higher.
## Result 1

###

# Tested on: native geph
# assay.overview: µSPOT peptide microarray binding assay with native geph from mouse brain lysate
# assay.setup: µSPOT peptide microarray, GlyRβ full positional scan, native geph from mouse brain lysate; intensity normalised to wild-type sequence DLRSNDFSIVGSLPR (=1)
measurement.type: Native geph Binding Intensity [norm.] (norm.)
Numeric only. Scale: norm.

[[record]]
primary_sequence = "MLRSNDFSIVGSLPR [GlyRβ_Full_Positional_Scan_018]"
result_units = "norm."
reading = 1.2

[[record]]
primary_sequence = "DLRSSDFSIVGSLPR [GlyRβ_Full_Positional_Scan_095]"
result_units = "norm."
reading = 0.85

[[record]]
primary_sequence = "DGRSNDFSIVGSLPR [GlyRβ_Full_Positional_Scan_022]"
result_units = "norm."
reading = 0.92

[[record]]
primary_sequence = "DLRSNDLSIVGSLPR [GlyRβ_Full_Positional_Scan_124, GlyR β 414-428 variant F420L]"
result_units = "norm."
reading = 0.44

[[record]]
primary_sequence = "DLQSNDFSIVGSLPR [GlyRβ_Full_Positional_Scan_060]"
result_units = "norm."
reading = 1.3


## Task In one line, give reported Native geph Binding Intensity [norm.] of the entry DLRENDFSIVGSLPR [GlyRβ_Full_Positional_Scan_071] .
## Result 1.11

## Task Note Native geph Binding Intensity [norm.] for the sequence shown: DLRSNDTSIVGSLPR [GlyRβ_Full_Positional_Scan_136, GlyR β 414-428 variant F420T]
## Result 0.36

## Task Dear colleague, please send me the reported Native geph Binding Intensity [norm.] for DLRDNDFSIVGSLPR [GlyRβ_Full_Positional_Scan_070] when you can.
## Result 1.34

## Task State its Native geph Binding Intensity [norm.] for this sequence: DLRVNDFSIVGSLPR [GlyRβ_Full_Positional_Scan_066]
## Result 0.98

###

# Tested on: FL-geph
# assay.overview: µSPOT peptide microarray binding assay with full-length geph
# assay.setup: µSPOT peptide microarray, GlyRβ full positional scan, intensity normalised to wild-type sequence DLRSNDFSIVGSLPR (=1)
Known Fl-geph Binding Intensity [norm.] of a selection of sequences

Here are 2 sequences together with their reported answers.
[[record]]
primary_sequence = "DLRSNDSSIVGSLPR [GlyRβ_Full_Positional_Scan_135, GlyR β 414-428 variant F420S]"
system_tested = "FL-geph"
measurement_type = "Fl-geph Binding Intensity [norm.]"
reading = "0.46 norm."

[[record]]
primary_sequence = "DLRSNDFSIVLSLPR [GlyRβ_Full_Positional_Scan_204, GlyR β 414-428 variant G424L]"
system_tested = "FL-geph"
measurement_type = "Fl-geph Binding Intensity [norm.]"
reading = "0.53 norm."


## Task # return recorded Fl-geph Binding Intensity [norm.] for entry DERSNDFSIVGSLPR [GlyRβ_Full_Positional_Scan_031]
## Result 1.01 norm.

## Task For the sequence DLRSIDFSIVGSLPR [GlyRβ_Full_Positional_Scan_083] , report Fl-geph Binding Intensity [norm.].
## Result 0.81 norm.

## Task Look up and state reported Fl-geph Binding Intensity [norm.] for DLRSVDFSIVGSLPR [GlyRβ_Full_Positional_Scan_086]
## Result 0.83 norm.

###

# Tested on: native geph
# assay.overview: µSPOT peptide microarray binding assay with native geph from mouse brain lysate
# assay.setup: µSPOT full positional scan of GlyRβ 15-mer DLRSNDFSIVGSLPR; native geph; intensity normalised to wild-type sequence (= 1)
Define the label as rule met when Native geph Binding Intensity [norm.] is strictly less than 0.9 norm. and as rule not met in all remaining cases.

Worked set:
[[record]]
primary_sequence = "DLRSNDFSIVGSLPQ [GlyRβ_Full_Positional_Scan_300]"
discrete_label = "rule not met"

[[record]]
primary_sequence = "DLRSNDFSIVGSLPV [GlyRβ_Full_Positional_Scan_286]"
discrete_label = "rule not met"


Shift focus to the following entry.
## Task Lab note: Native geph Binding Intensity [norm.] threshold 0.9 norm.. Does this sequence come in strictly under it? DLRSNDFSIVGELPR [GlyRβ_Full_Positional_Scan_231]
## Result rule met
